Recorded values, source ChEMBL document CHEMBL4665664.

- Protocol: Drug uptake in mouse spleen at 30 mg/kg, po measured after 4 hrs by LC/MS/MS analysis
- Format: ADME, organism-based
- Test conditions: read-out: Drug uptake
Experimental endpoint: concentration at 4 h (µM)
Write the answer as a number in µM, unit excluded.

Supply measured concentration at 4 h of CC(C)(C)c1ccc(S(=O)(=O)N(C[C@H](O)[C@@H](N)c2ccc(OC(F)(F)F)cc2)C2CCC2)cc1 in your reply.
12.7

----------
- Tgt: Signal peptide peptidase-like 2A (Mus musculus, UniProt Q9JJF9)
- Sequence (Q9JJF9 whole entry): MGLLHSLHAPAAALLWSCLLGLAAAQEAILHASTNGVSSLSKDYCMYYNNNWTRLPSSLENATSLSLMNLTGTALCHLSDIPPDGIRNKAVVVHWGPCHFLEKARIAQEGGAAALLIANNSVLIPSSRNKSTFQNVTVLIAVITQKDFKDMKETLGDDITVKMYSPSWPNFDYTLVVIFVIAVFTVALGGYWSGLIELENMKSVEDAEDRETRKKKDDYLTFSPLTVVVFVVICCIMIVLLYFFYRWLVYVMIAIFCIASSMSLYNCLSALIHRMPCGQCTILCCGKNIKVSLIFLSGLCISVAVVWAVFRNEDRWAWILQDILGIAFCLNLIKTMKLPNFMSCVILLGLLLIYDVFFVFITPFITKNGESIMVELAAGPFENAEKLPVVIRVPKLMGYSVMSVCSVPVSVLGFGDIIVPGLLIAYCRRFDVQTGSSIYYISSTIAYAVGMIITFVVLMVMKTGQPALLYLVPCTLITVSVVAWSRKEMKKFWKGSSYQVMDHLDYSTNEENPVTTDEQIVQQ
- Protocol: Inhibition of SPPL2a in Balb/c mouse A20 cells assessed as […] in CD74/p8 NTF accumulation incubated for overnight by Western blot analysis
- Type: cell-based
Experimental endpoint: IC50

Supply measured IC50 of CC(C)(C)c1ccc(S(=O)(=O)N(C[C@H](O)[C@@H](N)c2ccc(OC(F)(F)F)cc2)C2CCC2)cc1 in your reply.
0.15 µM

----------
- Tgt: UniProt:Q9Y5Z0
- Sequence (Q9Y5Z0 whole entry): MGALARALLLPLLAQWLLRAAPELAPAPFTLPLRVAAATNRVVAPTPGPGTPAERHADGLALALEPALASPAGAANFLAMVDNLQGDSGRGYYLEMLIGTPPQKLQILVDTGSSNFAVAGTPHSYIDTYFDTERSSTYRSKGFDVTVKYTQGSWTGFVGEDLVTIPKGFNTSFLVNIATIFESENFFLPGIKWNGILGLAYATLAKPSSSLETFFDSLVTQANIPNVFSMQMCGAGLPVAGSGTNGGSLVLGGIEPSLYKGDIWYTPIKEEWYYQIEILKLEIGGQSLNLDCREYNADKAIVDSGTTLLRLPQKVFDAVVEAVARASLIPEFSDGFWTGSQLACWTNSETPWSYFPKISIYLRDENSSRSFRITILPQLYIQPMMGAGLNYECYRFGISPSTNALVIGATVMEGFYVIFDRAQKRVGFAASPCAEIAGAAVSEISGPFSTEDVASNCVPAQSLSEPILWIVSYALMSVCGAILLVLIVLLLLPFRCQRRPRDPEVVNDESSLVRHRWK
pIC50: −log10 of the molar value.
Experimental endpoint: pIC50

Retrieve pIC50 on UniProt:Q9Y5Z0; query CC(C)CN(C[C@H](O)[C@@H](N)c1ccccc1)S(=O)(=O)c1ccc(Cl)c(Cl)c1
< 4.00

----------
- Protocol: Oral bioavailability in Balb/c mouse at 20 mg/kg by LC/MS/MS analysis
- Type: ADME, organism-based
- Test conditions: in vivo
Experimental endpoint: bioavailability (%)
Write the answer as a number in %, unit excluded.

Supply measured bioavailability of CC(C)(C)c1ccc(S(=O)(=O)N(C[C@H](O)[C@@H](N)c2ccc(OC(F)(F)F)cc2)C2CCC2)cc1 in your reply.
35

----------
- Tgt: UniProtKB P00797
- Sequence (P00797 whole entry, the tested form may be a part): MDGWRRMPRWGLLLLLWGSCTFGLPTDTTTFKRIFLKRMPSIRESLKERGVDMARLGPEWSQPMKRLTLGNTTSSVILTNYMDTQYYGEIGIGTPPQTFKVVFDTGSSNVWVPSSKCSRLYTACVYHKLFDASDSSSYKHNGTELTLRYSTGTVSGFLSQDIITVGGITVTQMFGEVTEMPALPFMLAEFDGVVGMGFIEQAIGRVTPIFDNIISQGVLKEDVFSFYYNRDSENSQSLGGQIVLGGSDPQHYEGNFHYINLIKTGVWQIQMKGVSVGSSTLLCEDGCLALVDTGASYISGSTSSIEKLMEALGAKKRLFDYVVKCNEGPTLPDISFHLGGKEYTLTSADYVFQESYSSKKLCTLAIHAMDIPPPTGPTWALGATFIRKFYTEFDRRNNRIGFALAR
- Protocol: Inhibition of human renin (67 to 406 residues) expressed in CHO cells using KHPWHLVIHT-C(PT14)-K as substrate preincubated for 1 hr followed by substrate addition and measured after 1 hr by fluorescence based assay
Experimental endpoint: IC50

Retrieve IC50 on UniProtKB P00797; query CC(C)CN(C[C@H](O)[C@@H](N)c1ccccc1)S(=O)(=O)c1ccc(Cl)c(Cl)c1
> 100 µM

----------
- Tgt: Signal peptide peptidase-like 2A (Mus musculus, UniProt Q9JJF9)
- Protocol: Inhibition of mouse SPPL2a cotransfected with EGFP-NLP-fused TNFalpha (1 to 77 residues)-NTF incubated for 24 hrs by Hoechst staining based Cellomics ArrayScan analysis
Experimental endpoint: pIC50
Lab note: report pIC50 as minus log10 of the concentration in molar units, number only.

Retrieve pIC50 on Signal peptide peptidase-like 2A (Mus musculus, UniProt Q9JJF9); query CC(C)(C)c1ccc(S(=O)(=O)N(C[C@H](O)[C@@H](N)c2ccc(OC(F)(F)F)cc2)C2CCC2)cc1
8.30

----------
- Protocol: Drug uptake in mouse spleen at 10 mg/kg, po measured after 4 hrs by LC/MS/MS analysis
- Assay type: ADME, organism-based
- Test conditions: read-out: Drug uptake
Experimental endpoint: concentration at 4 h (µM)
Write the answer as a number in µM, unit excluded.

Supply measured concentration at 4 h of CC(C)(C)c1ccc(S(=O)(=O)N(C[C@H](O)[C@@H](N)c2ccc(OC(F)(F)F)cc2)C2CCC2)cc1 in your reply.
6

----------
- Protocol: Equilibrium solubility of the compound in DMSO solution at pH 6.8 by saturation shake flask method
- Assay type: physicochemical
Record form. Attribute: solubility. Fill in for each entry.

Supply measured solubility of CC(C)CN(C[C@H](O)[C@@H](N)c1ccccc1)S(=O)(=O)c1ccc(Cl)c(Cl)c1 in your reply.
34 µg/mL

Supply measured solubility of CC(C)CN(C[C@H](O)[C@@H](N)Cc1ccccc1)S(=O)(=O)c1ccc(Cl)c(Cl)c1 in your reply.
< 2 µg/mL

Supply measured solubility of CC(C)CN(C[C@H](O)[C@H](Cc1ccccc1)NC(=O)OCc1ccccc1)S(=O)(=O)c1ccc(Cl)c(Cl)c1 in your reply.
< 2 µg/mL

----------
- Tgt: Gamma-secretase
- Protocol: Inhibition of gamma-secretase (unknown origin) expressed in HEK293 cells cotransfected with Notch1-VP16-GAL4 fusion and Gal4 luciferase reporter plasmid incubated for 24 hrs by luciferase reporter gene assay luminescence assay
Output: class label from IC50. Mapping: low value = under 3 µM, medium value = from 3 µM up to 5 µM, high value = 5 µM and over

Just checking, what class would you give CC1(N(C[C@H](O)[C@@H](N)c2ccccc2)S(=O)(=O)c2ccc(Cl)c(Cl)c2)CCC1 here?
high value

Just checking, what class would you give CC(C)(C)c1ccc(S(=O)(=O)N(C[C@H](O)[C@@H](N)c2ccc(OC(F)(F)F)cc2)C2CCC2)cc1 here?
low value

Just checking, what class would you give N[C@@H](c1ccccc1)[C@@H](O)CN(C1CCC1)S(=O)(=O)c1ccc2scnc2c1 here?
high value

Just checking, what class would you give CC1(C)CCC(C)(C)c2cc(S(=O)(=O)N(C[C@H](O)[C@@H](N)c3ccccc3)C3CCC3)ccc21 here?
low value

Just checking, what class would you give CC(C)ON(C[C@H](O)[C@@H](N)c1ccccc1)S(=O)(=O)c1ccc(Cl)c(Cl)c1 here?
high value

Just checking, what class would you give CC(C)(O)CN(C[C@H](O)[C@@H](N)c1ccccc1)S(=O)(=O)c1ccc(Cl)c(Cl)c1 here?
high value

Just checking, what class would you give N[C@@H](c1ccccc1)[C@@H](O)CN(C1COC1)S(=O)(=O)c1ccc(Cl)c(Cl)c1 here?
high value

Just checking, what class would you give N[C@@H](c1ccccc1)[C@@H](O)CN(Cc1ccccc1)S(=O)(=O)c1ccc(Cl)c(Cl)c1 here?
medium value

Just checking, what class would you give CC(C)(C)c1cccc(S(=O)(=O)N(C[C@H](O)[C@@H](N)c2ccccc2)C2CCC2)c1 here?
medium value

Just checking, what class would you give N[C@@H](c1ccccc1)[C@@H](O)CN(C1CCCCCC1)S(=O)(=O)c1ccc(Cl)c(Cl)c1 here?
low value

Just checking, what class would you give CC(C)CN(C[C@H](O)[C@@H](N)c1ccccc1)S(=O)(=O)c1ccc(Cl)c(Cl)c1 here?
medium value

Just checking, what class would you give CC(C)(C)c1ccc(S(=O)(=O)N(C[C@H](O)[C@@H](N)c2ccccc2)C2CCC2)cc1 here?
medium value

----------
- Tgt: Cathepsin E (Homo sapiens, UniProt P14091)
- Sequence (P14091 whole entry): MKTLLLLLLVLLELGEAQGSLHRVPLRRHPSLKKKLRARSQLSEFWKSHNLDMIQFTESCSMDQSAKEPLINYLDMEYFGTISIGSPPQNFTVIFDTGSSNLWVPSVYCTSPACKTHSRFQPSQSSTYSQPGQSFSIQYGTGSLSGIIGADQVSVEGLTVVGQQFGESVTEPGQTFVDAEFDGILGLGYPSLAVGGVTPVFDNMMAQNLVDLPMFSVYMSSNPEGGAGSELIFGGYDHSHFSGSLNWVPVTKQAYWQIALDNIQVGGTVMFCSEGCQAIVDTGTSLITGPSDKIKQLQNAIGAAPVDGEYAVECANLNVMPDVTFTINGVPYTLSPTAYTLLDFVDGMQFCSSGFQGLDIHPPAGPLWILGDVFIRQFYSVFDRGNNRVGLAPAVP
- Protocol: Inhibition of human cathepsin E isoform 1 (19 to 401 residues) expressed in Escherichia coli using R-C(PT14)KPILFFRLGWR-OH as substrate preincubated for 1 hr followed by substrate addition and measured after 1 hr by fluorescence based assay
pIC50: −log10 of the molar value.
Experimental endpoint: pIC50

Supply measured pIC50 of CC(C)CN(C[C@H](O)[C@@H](N)c1ccccc1)S(=O)(=O)c1ccc(Cl)c(Cl)c1 in your reply.
< 4.00
